Parameter: IC50. Scope: all listed entries.
# SYSTEM_UNDER_TEST: T1, CD3 expressed on cell-surface of primary human T cells (human, UniProt P07766 23-207; P04234 22-171)
# T1 construct: also called cell-surface CD3; human CD3
# METHOD_SUMMARY: flow cytometry competition vs murine SP34-AF488 on human T cells, n = 1
Return type: number; implicit unit µg/mL.

Example entries begin here.
[[record]]
binder = "huSP34.4.1 Fab-HF (Fab, V domains shown) VH: EVQLVESGGGLVQPGGSLRLSCAASGFTFSTYAMNWVRQAPGKGLEWVGRIRSKYNNYATYYAASVKGRFTISRDDSKNSLYLQMNSLRTEDTAVYYCVRHGNFGHSYVSWFAVWGQGTLVTVSS VL: QAVVTQEPSLTVSPGGTVTLTCRSSTGAVTTSNYANWVQQKPGQAPRGLIGGTNKRAPWTPARFSGSLIGDKAALTLSGAQPEDEAEYYCALWYSNLWVFGGGTKLTVL"
quantitative_result = 9.57

[[record]]
binder = "huSP34.3.2 Fab-HF (Fab, V domains shown) VH: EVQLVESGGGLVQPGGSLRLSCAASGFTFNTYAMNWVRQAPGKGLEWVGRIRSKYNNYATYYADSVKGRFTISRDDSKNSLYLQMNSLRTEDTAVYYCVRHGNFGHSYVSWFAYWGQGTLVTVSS VL: QAVVTQEPSLTVSPGGTVTLTCGSSTGAVTTSNYANWVQQKPGQAPRGLIGGTSNRAPWTPARFSGSLLGGKAALTLSGAQPEDEAEYYCALWYSNLWVFGGGTKLTVL"
quantitative_result = 11.9


Okay, now this binder:
response.value for huSP34.4.6 Fab-HF (Fab, V domains shown) VH: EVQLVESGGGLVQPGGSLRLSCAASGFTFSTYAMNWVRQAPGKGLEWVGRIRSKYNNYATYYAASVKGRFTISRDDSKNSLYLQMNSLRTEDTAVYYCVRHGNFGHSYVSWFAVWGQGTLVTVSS VL: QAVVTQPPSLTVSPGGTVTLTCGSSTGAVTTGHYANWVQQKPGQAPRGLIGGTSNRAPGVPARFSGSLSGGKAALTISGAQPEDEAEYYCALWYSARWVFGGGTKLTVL (field: IC50) = 18.5
